B1: TTC32 (parent)
chain: YSAYIRRCACAASSDESPGSKCSP

Variants of: B1
assay_notes: protein stability index of a GFP-peptide fusion (GPS, HEK-293T) (PSI 1-6); higher = more stable;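 further: lentivirally expressed fusions sorted by FACS into six bins by GFP to DsRed ratio, PSI derived from sequencing read proportions per bin multiplied by bin number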
condition: c terminus: a fixed tail appended

| seq_text | protein stability index |
| --- | --- |
| YSAYIRRCACAASSDESPGSKCSL [P24L] | 2.1 |
| YSAYIRICACAASSDESPGSKCSP [R7I] | 1.42 |
| YSAYIRRCACAASSDESPGSKCST [P24T] | 2.03 |
| YSAYIRRCACAASSDESPGSKCEP [S23E] | 2.14 |
| YSAYIRRCACAASSDESPGSKTSP [C22T] | 2.57 |
| YSAYIRRCYCAASSDESPGSKCSP [A9Y] | 1.55 |
| YIAYIRRCACAASSDESPGSKCSP [S2I] | 1.58 |
| YSAYIRRCACAASSDESPGSCCSP [K21C] | 2.37 |
